Values were extracted from paper PMC7641324.

TARGET OR SYSTEM: RecBCD enzyme (RecB subunit) (Escherichia coli, UniProt P08394)
Construct: RecBCD holoenzyme (330 kDa, three subunits); with RecC and RecD
Sequence (P08394 2-1180): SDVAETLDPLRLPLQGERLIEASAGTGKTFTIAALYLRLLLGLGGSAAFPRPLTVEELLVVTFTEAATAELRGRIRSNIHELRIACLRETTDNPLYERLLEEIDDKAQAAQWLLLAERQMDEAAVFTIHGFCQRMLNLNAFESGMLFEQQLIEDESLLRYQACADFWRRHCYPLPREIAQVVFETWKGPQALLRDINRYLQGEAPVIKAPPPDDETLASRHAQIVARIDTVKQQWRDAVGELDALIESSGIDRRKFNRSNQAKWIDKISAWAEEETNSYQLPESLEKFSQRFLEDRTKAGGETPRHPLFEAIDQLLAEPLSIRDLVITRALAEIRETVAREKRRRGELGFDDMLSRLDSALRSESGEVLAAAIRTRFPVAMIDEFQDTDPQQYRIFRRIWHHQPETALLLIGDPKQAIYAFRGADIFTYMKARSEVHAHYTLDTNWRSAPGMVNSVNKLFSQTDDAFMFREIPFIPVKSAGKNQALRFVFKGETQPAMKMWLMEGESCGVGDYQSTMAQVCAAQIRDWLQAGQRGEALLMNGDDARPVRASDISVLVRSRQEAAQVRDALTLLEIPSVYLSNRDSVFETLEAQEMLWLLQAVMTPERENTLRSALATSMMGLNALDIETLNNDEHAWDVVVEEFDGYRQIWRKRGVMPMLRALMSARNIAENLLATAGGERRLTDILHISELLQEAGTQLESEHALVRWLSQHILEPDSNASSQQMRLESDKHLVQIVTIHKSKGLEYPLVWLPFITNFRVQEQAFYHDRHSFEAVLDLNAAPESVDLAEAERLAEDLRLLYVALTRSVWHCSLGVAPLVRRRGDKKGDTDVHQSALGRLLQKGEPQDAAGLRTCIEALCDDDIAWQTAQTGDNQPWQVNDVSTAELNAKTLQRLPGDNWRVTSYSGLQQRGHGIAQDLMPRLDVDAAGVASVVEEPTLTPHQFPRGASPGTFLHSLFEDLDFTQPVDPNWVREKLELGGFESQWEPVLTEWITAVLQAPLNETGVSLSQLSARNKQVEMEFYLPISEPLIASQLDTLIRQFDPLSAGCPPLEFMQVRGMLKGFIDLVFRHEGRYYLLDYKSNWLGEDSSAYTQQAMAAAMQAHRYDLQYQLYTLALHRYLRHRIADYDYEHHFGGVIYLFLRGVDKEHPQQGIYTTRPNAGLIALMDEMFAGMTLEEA
Sequence (P07648 whole entry, further chain): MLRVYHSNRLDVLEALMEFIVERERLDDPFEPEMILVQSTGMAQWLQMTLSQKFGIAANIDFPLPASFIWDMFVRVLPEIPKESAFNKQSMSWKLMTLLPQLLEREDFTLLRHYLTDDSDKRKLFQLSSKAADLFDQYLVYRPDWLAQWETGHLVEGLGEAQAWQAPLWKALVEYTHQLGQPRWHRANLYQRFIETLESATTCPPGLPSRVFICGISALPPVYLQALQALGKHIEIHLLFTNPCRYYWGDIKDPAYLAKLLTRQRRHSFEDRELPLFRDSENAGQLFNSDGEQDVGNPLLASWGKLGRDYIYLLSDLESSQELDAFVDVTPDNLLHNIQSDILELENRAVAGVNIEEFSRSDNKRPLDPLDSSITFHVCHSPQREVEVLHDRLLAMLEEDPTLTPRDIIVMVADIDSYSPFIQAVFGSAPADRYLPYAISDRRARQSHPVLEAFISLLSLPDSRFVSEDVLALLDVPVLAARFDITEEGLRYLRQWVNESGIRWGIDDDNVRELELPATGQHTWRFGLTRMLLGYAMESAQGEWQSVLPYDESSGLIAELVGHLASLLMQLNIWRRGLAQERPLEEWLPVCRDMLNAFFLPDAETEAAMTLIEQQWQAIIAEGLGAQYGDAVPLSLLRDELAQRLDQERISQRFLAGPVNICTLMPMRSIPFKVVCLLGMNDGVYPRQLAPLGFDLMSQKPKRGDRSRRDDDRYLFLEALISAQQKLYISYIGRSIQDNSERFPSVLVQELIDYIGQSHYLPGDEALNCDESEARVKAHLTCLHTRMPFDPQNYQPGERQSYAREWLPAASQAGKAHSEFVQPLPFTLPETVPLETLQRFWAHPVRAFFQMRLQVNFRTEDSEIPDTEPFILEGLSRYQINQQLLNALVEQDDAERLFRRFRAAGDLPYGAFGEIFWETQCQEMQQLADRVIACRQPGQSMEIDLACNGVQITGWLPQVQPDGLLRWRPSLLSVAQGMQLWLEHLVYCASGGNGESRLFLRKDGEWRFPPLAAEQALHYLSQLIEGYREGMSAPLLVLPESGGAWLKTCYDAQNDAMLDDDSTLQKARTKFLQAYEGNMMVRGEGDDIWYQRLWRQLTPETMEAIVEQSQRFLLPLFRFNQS
Sequence (P04993 whole entry, further chain): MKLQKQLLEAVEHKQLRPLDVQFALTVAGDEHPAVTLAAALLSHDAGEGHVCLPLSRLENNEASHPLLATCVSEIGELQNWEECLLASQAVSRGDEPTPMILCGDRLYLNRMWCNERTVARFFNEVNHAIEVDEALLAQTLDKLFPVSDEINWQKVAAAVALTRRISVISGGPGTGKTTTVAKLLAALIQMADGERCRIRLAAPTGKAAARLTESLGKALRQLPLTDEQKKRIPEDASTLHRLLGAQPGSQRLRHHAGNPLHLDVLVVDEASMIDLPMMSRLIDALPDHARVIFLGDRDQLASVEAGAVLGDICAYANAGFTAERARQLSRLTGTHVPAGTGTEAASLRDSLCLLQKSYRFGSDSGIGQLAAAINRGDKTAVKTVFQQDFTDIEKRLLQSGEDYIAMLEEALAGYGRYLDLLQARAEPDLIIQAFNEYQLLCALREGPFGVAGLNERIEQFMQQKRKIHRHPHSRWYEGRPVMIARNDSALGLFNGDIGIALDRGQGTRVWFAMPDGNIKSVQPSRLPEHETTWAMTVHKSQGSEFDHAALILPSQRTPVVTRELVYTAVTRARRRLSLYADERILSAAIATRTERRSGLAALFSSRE
PROTOCOL NOTES: RecBCD nuclease assay with [3H] phage T7 DNA, […] ATP; unaffected by Triton X-100
pIC50: −log10 of the molar value.
RECORDED ENDPOINT: pIC50

{"columns": ["COMPOUND", "MEAS VALUE"],
 "data": [
  ["CCC(Sc1nnc2n(CCOc3ccccc3Cl)c3ccccc3n12)C(=O)O (stereo not shown) [NSAC1003]", 5.20]
]}
